The entries below are paired with their reported IC50.
biological target: human PiT-1 (Homo sapiens); construct: expressed in transfected cells; host or cells: CHO cells; assay: Inhibitory effect on 33PO4 uptake into human PiT-1-expressing CHO cells; type: cell-based; settings: compound 0.24, 1.2, 6 or 30 μM, pH 6.5, read-out: IC50 against 33PO4 uptake into human PiT-1-expressing cells
Sequence (Q8WUM9 whole entry): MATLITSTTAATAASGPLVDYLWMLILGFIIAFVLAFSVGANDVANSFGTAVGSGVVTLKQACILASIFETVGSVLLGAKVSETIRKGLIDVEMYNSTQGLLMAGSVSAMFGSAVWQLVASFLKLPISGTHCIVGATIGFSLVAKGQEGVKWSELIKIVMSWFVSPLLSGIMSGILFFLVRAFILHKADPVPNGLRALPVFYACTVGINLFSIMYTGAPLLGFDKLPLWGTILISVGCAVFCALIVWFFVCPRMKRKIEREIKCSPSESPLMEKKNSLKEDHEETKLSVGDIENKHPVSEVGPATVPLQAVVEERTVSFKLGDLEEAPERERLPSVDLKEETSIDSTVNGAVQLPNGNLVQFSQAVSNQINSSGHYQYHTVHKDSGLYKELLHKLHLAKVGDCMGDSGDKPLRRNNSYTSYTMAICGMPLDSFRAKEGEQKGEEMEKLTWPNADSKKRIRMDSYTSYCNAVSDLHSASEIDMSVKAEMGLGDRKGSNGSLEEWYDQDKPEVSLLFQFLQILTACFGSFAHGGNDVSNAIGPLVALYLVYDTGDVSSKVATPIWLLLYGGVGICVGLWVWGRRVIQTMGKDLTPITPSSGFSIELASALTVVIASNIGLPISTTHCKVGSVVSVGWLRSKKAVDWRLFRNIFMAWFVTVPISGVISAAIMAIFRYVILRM
Please give a number only; it is taken to be in µM.

Example entries begin here.
> print(dat)
                                     smiles  number
1  C[C@]12CCCN1N(Cc1ccc(C#CCN3CCOCC3)c(F)c1F)C(=O)C(C(=O)Nc1ccc(C(F)(F)F)cc1-c1ccc(C(F)(F)F)nc1)=C2O     3.8
2  C[C@]12CCCN1N(Cc1ccc(OCCCCOC[C@H](O)CO)c(F)c1F)C(=O)C(C(=O)Nc1ccc(C(F)(F)F)cc1-c1cc(C(F)(F)F)ncn1)=C2O     5.3
3  CN(C)CC(C)(C)COc1ccc(CN2C(=O)C(C(=O)Nc3ccc(C(F)(F)F)cc3-c3cc(C(F)(F)F)ncn3)=C(O)C3(CCCC3)N2C)c(F)c1F     1.9
4  Cc1c(C#N)ncnc1-c1cc(C(F)(F)F)ccc1NC(=O)C1=C(O)[C@H](C(C)(C)C)N(C)N(Cc2ccc(OCCN3CCOCC3)c(F)c2F)C1=O     3.4
5  CN1[C@@H](C(C)(C)C)C(O)=C(C(=O)Nc2ccc(C(F)(F)F)cc2-c2cc(C(F)(F)F)ncn2)C(=O)N1Cc1ccc(OCCN2CCOCC2)c(F)c1F     4.6
6  CN1N(Cc2ccc(OCCCCC(=O)O)c(F)c2F)C(=O)C(C(=O)Nc2ccc(C(F)(F)F)cc2-c2cc(C(F)(F)F)ncn2)=C(O)C12CCCC2     3.6
7  COC[C@@H]1CCCN1CCOc1ccc(CN2C(=O)C(C(=O)Nc3ccc(C(F)(F)F)cc3-c3cc(C(F)(F)F)ncn3)=C(O)C3(CCC3)N2C)c(F)c1F     1.2

Now for the compound whose IC50 we want.
Input "C[C@]12CCCN1N(Cc1ccc(OCCCCCCOC[C@H](O)CO)c(F)c1F)C(=O)C(C(=O)Nc1cnc(C(F)(F)F)nc1-c1ccc(C(F)(F)F)nc1)=C2O" , output reported IC50.
3.9
